# Test system: Staphylococcus aureus
# Assay Info: Antimicrobial activity against Staphylococcus aureus at 200 ug/ml after 48 hr by cup-plate method
# Type: functional
# Particulars: read-out: IZ
We use 20 mm as the dividing line for zone of inhibition at 200 µg/mL: on or above the line is 1, below is -1.

                               line_notation         assayed_target  label_value
 0  O=C(c1ccc(Nc2nc(-c3ccccc3)nc3ccccc23)cc1)[n+]1nc([S-])sc1-c1cccc([N+](=O)[O-])c1  Staphylococcus aureus            1
 1  O=C(c1ccc(Nc2nc(-c3ccccc3)nc3ccccc23)cc1)[n+]1nc([S-])sc1-c1ccccc1  Staphylococcus aureus           -1
 2  O=C(c1ccc(-n2c(-c3ccccc3)nc3ccccc3c2=O)cc1)[n+]1nc([S-])sc1-c1cc([N+](=O)[O-])ccc1Cl  Staphylococcus aureus            1
 3  O=C(c1ccc(Nc2nc(-c3ccccc3)nc3ccccc23)cc1)[n+]1nc([S-])sc1-c1cc([N+](=O)[O-])ccc1Cl  Staphylococcus aureus            1
 4  O=C(O)c1cn(C2CC2)c2cc(N3CCNCC3)c(F)cc2c1=O  Staphylococcus aureus            1
 5  COc1ccc(-c2sc([S-])n[n+]2C(=O)c2ccc(Nc3nc(-c4ccccc4)nc4ccccc34)cc2)cc1[N+](=O)[O-]  Staphylococcus aureus            1
 6  O=C(c1ccc(Nc2nc(-c3ccccc3)nc3ccccc23)cc1)[n+]1nc([S-])sc1-c1ccc(Cl)cc1  Staphylococcus aureus           -1
 7  O=C(c1ccc(-n2c(-c3ccccc3)nc3ccccc3c2=O)cc1)[n+]1nc([S-])sc1-c1cccc([N+](=O)[O-])c1  Staphylococcus aureus           -1
 8  COc1ccc(-c2sc([S-])n[n+]2C(=O)c2ccc(-n3c(-c4ccccc4)nc4ccccc4c3=O)cc2)cc1[N+](=O)[O-]  Staphylococcus aureus           -1
 9  O=C(c1ccc(Nc2nc(-c3ccccc3)nc3ccccc23)cc1)[n+]1nc([S-])sc1-c1ccc([N+](=O)[O-])cc1  Staphylococcus aureus           -1
10  O=C(c1ccc(-n2c(-c3ccccc3)nc3ccccc3c2=O)cc1)[n+]1nc([S-])sc1-c1ccccc1  Staphylococcus aureus            1
11  O=C(c1ccc(-n2c(-c3ccccc3)nc3ccccc3c2=O)cc1)[n+]1nc([S-])sc1-c1ccc(Cl)cc1  Staphylococcus aureus            1
12  Cc1sc([S-])n[n+]1C(=O)c1ccc(Nc2nc(-c3ccccc3)nc3ccccc23)cc1  Staphylococcus aureus           -1
13  Cc1sc([S-])n[n+]1C(=O)c1ccc(-n2c(-c3ccccc3)nc3ccccc3c2=O)cc1  Staphylococcus aureus            1

----------
# System: Staphylococcus aureus
# Assay Info: Antimicrobial activity against Staphylococcus aureus after overnight incubation by broth dilution method
# Format: functional
Below, each of the compounds is paired with its reported MIC value.
Readout: MIC

                              line_notation    result
0  O=C(c1ccc(Nc2nc(-c3ccccc3)nc3ccccc23)cc1)[n+]1nc([S-])sc1-c1ccc([N+](=O)[O-])cc1  32 µg/mL
1  O=C(c1ccc(-n2c(-c3ccccc3)nc3ccccc3c2=O)cc1)[n+]1nc([S-])sc1-c1ccccc1   4 µg/mL
2  O=C(c1ccc(Nc2nc(-c3ccccc3)nc3ccccc23)cc1)[n+]1nc([S-])sc1-c1ccc(Cl)c([N+](=O)[O-])c1   8 µg/mL
3  O=C(c1ccc(-n2c(-c3ccccc3)nc3ccccc3c2=O)cc1)[n+]1nc([S-])sc1-c1ccc(Cl)c([N+](=O)[O-])c1   8 µg/mL

----------
Below, each of the compounds is paired with its reported zone of inhibition at 200 µg/mL value.
# System: Staphylococcus aureus
# Assay Info: Antimicrobial activity against Staphylococcus aureus at 200 ug/ml after 48 hr by cup-plate method
# Type: functional
# Particulars: read-out: IZ
Readout: zone of inhibition at 200 µg/mL (mm)

In [3]: df
Out[3]:
                              line_notation  unit_of_measurement  readout_number
0  O=C(c1ccc(-n2c(-c3ccccc3)nc3ccccc3c2=O)cc1)[n+]1nc([S-])sc1-c1ccc(Cl)c([N+](=O)[O-])c1                   mm              20
1  O=C(c1ccc(-n2c(-c3ccccc3)nc3ccccc3c2=O)cc1)[n+]1nc([S-])sc1-c1ccc([N+](=O)[O-])cc1                   mm              20
2  O=C(c1ccc(Nc2nc(-c3ccccc3)nc3ccccc23)cc1)[n+]1nc([S-])sc1-c1ccc(Cl)c([N+](=O)[O-])c1                   mm              20
